Ref: patent US20210403506A1

Entries and their EC50 (µM), activation of Tango CMKLR1-bla U2OS cells values follow.
# TESTED TARGET: T1, human Chemokine like receptor 1 (human, UniProt Q99788 1-373)
# T1 sequence (looked up): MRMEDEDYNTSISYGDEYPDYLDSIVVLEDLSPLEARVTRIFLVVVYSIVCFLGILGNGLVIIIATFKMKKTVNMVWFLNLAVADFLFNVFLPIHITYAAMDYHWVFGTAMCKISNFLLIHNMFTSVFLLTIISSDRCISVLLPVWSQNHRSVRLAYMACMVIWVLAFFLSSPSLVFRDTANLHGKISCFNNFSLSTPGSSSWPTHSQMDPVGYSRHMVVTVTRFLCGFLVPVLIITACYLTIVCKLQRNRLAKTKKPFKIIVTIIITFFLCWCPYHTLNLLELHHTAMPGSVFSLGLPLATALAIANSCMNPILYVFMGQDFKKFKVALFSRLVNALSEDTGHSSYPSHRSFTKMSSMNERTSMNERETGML
# TEST PROTOCOL: cell-based or functional assay
Square brackets hold non-standard residues; d marks the D form. Ends that are not written are not given here. * marks the point of attachment. 1Nal = N[C@@H](Cc1cccc2ccccc12)C(=O)O; Hydrocinnamoyl = O=C(CCc1ccccc1)*; Tic = O=C(O)[C@@H]1Cc2ccccc2CN1; NMeL = CN[C@@H](CC(C)C)C(=O)O; Nleu = CC(C)CNCC(=O)O
Just the number please, in µM, no unit attached.

Use these answered entries as a reference point.
[dY][1Nal][NMeL]P[dS]QF[dA][Tic]S [YW-199] : 0.0029
[dY]F[Nleu]P[dS]QF[dA][Tic]S-OH [YW-102] : 0.31

// next item, EC50 (µM), activation of Tango CMKLR1-bla U2OS cells requested
Qu. Item Hydrocinnamoyl-[dY]F[NMeL]P[dS]QF[dA][Tic]S-OH (SMILES CC(C)C[C@@H](C(=O)N1CCC[C@H]1C(=O)N[C@H](CO)C(=O)N[C@@H](CCC(N)=O)C(=O)N[C@@H](Cc1ccccc1)C(=O)N[C@H](C)C(=O)N1Cc2ccccc2C[C@H]1C(=O)N[C@@H](CO)C(=O)O)N(C)C(=O)[C@H](Cc1ccccc1)NC(=O)[C@@H](Cc1ccc(O)cc1)NC(=O)CCc1ccccc1) [YW-111] has what recorded EC50 (µM), activation of Tango CMKLR1-bla U2OS cells?
Ans. 0.002
